Assay: blockers of Ca2+-induced mitochondrial swelling – biochemical, isolated mouse mitochondria, absorbance, primary screen (AID 602449);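 also: 0% = DMSO wells given calcium and 100% = 1 mM EGTA wells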
Conditions: 30 min, at 10 µM, hits give high values
About 5,000 (1.4%) of roughly 360,000 compounds were called active. Many of the other results were omitted from the sample, so actives are more common in it than they were.
QUANTITY MEASURED: inhibition

INSERT INTO assay_data (compound, value_measured) VALUES
  ('CCN1C[C@@H]2[C@@H]3C(=O)N(C)C(=O)[C@@H]3[C@](C)(C1=O)N2C(=O)c1ccccc1', '-0.4% (inactive)'),
  ('Cc1ccc2c(c1)C1CN(C)CCC1N2S(=O)(=O)c1cccc(F)c1 (stereo not given)', '0.2% (inactive)'),
  ('O=C(Cn1nc(CNc2ccc(Cl)cc2)[n+]2c1CCCCC2)c1ccc(Cl)cc1', '29.5% (inactive)'),
  ('Cc1ccc2c(c1)C1CN(C)CCC1N2S(=O)(=O)c1ccc(Oc2ccc([N+](=O)[O-])cc2)cc1 (stereo not given)', '83.1% (active)'),
  ('O=S(=O)(Cc1cc(Cl)nc(-c2cccnc2)n1)c1ccccc1', '0.8% (inactive)');

----------
Assay: blockers of Ca2+-induced mitochondrial swelling – biochemical, isolated mouse mitochondria, absorbance, primary screen (AID 602449);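 also: 0% = DMSO wells given calcium and 100% = 1 mM EGTA wells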
Settings: 30 min, at 10 µM, hits give high values
The campaign covered roughly 360,000 compounds. About 5,000 (1.4%) were called active. The entries come from a sample that favours actives as a whole.
Let's look at some compounds and their measured inhibition.
QUANTITY MEASURED: inhibition (%)

INSERT INTO assay_data (compound, quantity_measured, value_measured) VALUES
  ('Cc1ccc(C)c(NC(=S)NNC(=S)Nc2ccc(C(C)C)cc2)c1', 'inhibition', 93.7),
  ('CCOC(=O)c1cnc(Nc2nc3ccccc3o2)nc1CSC(=S)N1CCCCC1', 'inhibition', 1.4),
  ('Cc1ccc(C)c(NC(=O)C2CC(=O)N(C(C)C)C2)c1 (stereo not drawn)', 'inhibition', -0.7),
  ('Brc1ccc(CSc2ccc(-c3ccco3)nn2)cc1', 'inhibition', 57.6),
  ('CCN(CC)S(=O)(=O)c1ccc(N2CCCC2)c(NS(=O)(=O)c2cccs2)c1', 'inhibition', -2.4),
  ('CCc1nc2c(OCCOc3ccc(F)cc3)cccn2c1N(C)C(=O)c1ccccc1F', 'inhibition', 0.6),
  ('CC(=O)c1cccc(NC(=S)N2CCN(S(C)(=O)=O)CC2)c1', 'inhibition', 0.1),
  ('C=CC[n+]1c(-c2ccc(C)cc2)csc1NNC(=O)Nc1ccccc1', 'inhibition', 86.7),
  ('Cc1ccc(C)c(NC(=S)NCC(c2cccnc2)N2CCOCC2)c1 (stereo not drawn)', 'inhibition', -1.7),
  ('COc1ccc(NC(=O)CSc2ccc(-c3ccco3)nn2)c(OC)c1', 'inhibition', 0.7),
  ('O=C(CSc1ccc(-c2ccco2)nn1)NCc1ccc2c(c1)OCO2', 'inhibition', -0.3),
  ('O=C(NC(=S)NC1CCS(=O)(=O)C1)c1cccc([N+](=O)[O-])c1 (stereo not drawn)', 'inhibition', -0.7),
  ('CCN(CC(=O)Nc1c(F)cccc1F)C(=O)c1cnc(C)cn1', 'inhibition', 1.7),
  ('O=C(CCN1CCc2ccccc2C(O)(c2ccccc2)C1)c1ccc2c(c1)OCCO2 (stereo not drawn)', 'inhibition', 2.6),
  ('CN(Cc1cccnc1)C(=O)c1cc(COc2ccc3ncccc3c2)on1', 'inhibition', 98.2),
  ('CC(C)C(=O)N1c2ccccc2NC2=C(C(=O)CCC2)C1c1ccc(N(C)C)cc1 (stereo not drawn)', 'inhibition', 0.8),
  ('COc1ccc(S(=O)(=O)N(C)CC(=O)N2CCCC2)cc1', 'inhibition', -2.1),
  ('COc1ccc(/C=C2\CCCC3C2=NN(C(=O)c2scnc2C)C3c2ccc(OC)cc2)cc1 (stereo not drawn)', 'inhibition', -3.7),
  ('CC(=O)c1cccc(OCc2cc(C(=O)NC(C)Cc3cccnc3)no2)c1 (stereo not drawn)', 'inhibition', 0),
  ('CCCCN(C)C(=O)C1CCN(Cc2ccccn2)CC1', 'inhibition', -1),
  ('O=C(Nc1ccc2ccccc2c1)Nc1ccc2snnc2c1', 'inhibition', 99.8),
  ('O=C(NNC(=O)c1ccc(-c2ccccc2)cc1)Nc1ccccc1', 'inhibition', 2.8),
  ('Cc1ccc(CS(=O)(=O)CCC(=O)NC2CC2)cc1', 'inhibition', -1.1);

----------
Assay: blockers of Ca2+-induced mitochondrial swelling – biochemical, isolated mouse mitochondria, absorbance, primary screen (AID 602449);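 also: 0% = DMSO wells given calcium and 100% = 1 mM EGTA wells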
Details: 30 min, at 10 µM, hits give high values
Screen size: about 360,000 compounds; about 5,000 (1.4%) were called active. The sample as a whole holds a higher share of actives than the screen did.
QUANTITY MEASURED: inhibition (%)

INSERT INTO measurements (compound, value_measured) VALUES
  ('S=C(Nc1ccc(Br)cc1)NC1CCN(Cc2ccccc2)CC1', 3.1),
  ('Cc1cc(C(=O)CSc2nc(N)cc(=O)[nH]2)c(C)n1-c1cccc(F)c1', 63.2),
  ('Cc1ccc(-n2cc(CN(C)Cc3nccn3C)c(-c3cccc(C)c3)n2)cc1', 0.5),
  ('CCCCCOc1ccc(CSC2=NCCN2)cc1[N+](=O)[O-]', -1.4),
  ('COc1ccccc1CNC(=O)CCn1c(=O)sc2ccccc21', 0.2),
  ('CC(NC(=S)Nc1ccccc1)C(c1cccs1)N1CCOCC1 (stereo not drawn)', 0.1),
  ('O=C(Nc1ccc(F)cc1)C1CCN(C(=O)c2ccc([N+](=O)[O-])cc2)CC1', 0.6),
  ('COC(=O)c1ccc2c(c1)S(=O)(=O)NC(=NCCCN1CCOCC1)S2', 0.8),
  ('COc1ccc(NS(=O)(=O)c2ccc(NC(=S)NC(=O)CC(C)C)cc2)cc1', 0.5),
  ('CCOc1ccc(NC(=O)c2ccc(NC(=O)COC(=O)c3ccc(NC(=O)CC#N)cc3)cc2)cc1', 0.5),
  ('COc1ccc(CNC(=O)C(=O)N2CCC3(CC2)OCCN3S(=O)(=O)c2ccc(C)cc2)cc1', 0.1),
  ('CCCCOC(=O)CCCc1ccc([N+](=O)[O-])cc1[N+](=O)[O-]', 1.5),
  ('COc1ccc(S(=O)(=O)N2CCC(C(=O)NCCC(=O)Nc3ccccc3OC)CC2)cc1', 1),
  ('Cn1c(Cc2cccc3ccccc23)nnc1SCC(=O)N1CCN(c2cccc(Cl)c2)CC1', -0.5),
  ('Cc1c[n+]([O-])ccc1[N+](=O)[O-]', -0.3),
  ('COc1ccccc1NC(=O)CCSc1nnc(-c2ccc(O)cc2)o1', -1.6),
  ('CCC(C)NC(=O)c1nn(C)c(=O)c2ccccc12 (stereo not drawn)', -0.2),
  ('CN1CCN(CCNC(=O)Nc2ccccc2[N+](=O)[O-])CC1', -0.3),
  ('CCCCOc1ccc(CSC(=N)N)cc1[N+](=O)[O-]', 112),
  ('Cc1ccc(Nc2c(F)c(F)c(F)c(F)c2C(=O)O)c(C)c1', -0.7),
  ('COc1ccc(N2CCN(C(=O)[C@@H](NC(=O)c3cc(OC)cc(OC)c3)C(C)C)CC2)cc1', 0.3),
  ('O=C(CCC(=O)N1CCCC1)Nc1ccc([N+](=O)[O-])cc1', -1.4),
  ('Cc1cc(C(=O)O)c(S(C)(=O)=O)s1', 0),
  ('COc1ccc(C)cc1-n1nnnc1SCC(=O)c1cc(C)n(Cc2ccco2)c1C', -2.3),
  ('COC(=O)[C@@]12C[C@@H](CC(=O)NCCCCc3ccccc3)C(=O)N(CCc3ccc(OC)c(OC)c3)C1=CCC(C)(C)C2', -2.6),
  ('CC(=O)c1c(C)oc2ccc(NS(=O)(=O)c3ccc(C(=O)O)cc3)cc12', 0.1),
  ('CCOC(=O)C1CCN(C(=O)CSc2cc(=O)n(C)c3ccccc23)CC1', 0.5),
  ('COC(=O)C1CC2=C(CC(C)(C)CC2=O)N(c2ccccc2)C1=O (stereo not drawn)', -0.8),
  ('COc1ccc(OCCCC(=O)Nc2nnc(C3CCCO3)s2)cc1 (stereo not drawn)', 1.4),
  ('COc1cccc(N(Cc2nnc3n2CCCCC3)C(=O)Nc2ccccc2F)c1', 0.7),
  ('CC(NC(=S)Nc1ccccc1)C1COc2ccccc2O1 (stereo not drawn)', 83.4),
  ('CCC(C)(C)c1ccc(Oc2ccc(NC(=O)COC(=O)C3=COCCO3)cc2)cc1', 79.2),
  ('CCCC1CC(C)(C(=O)Cn2[nH]c(=O)ccc2=O)OC1=O (stereo not drawn)', -1.2),
  ('CCc1noc(C)c1C(=O)Oc1ccc(N(C)S(=O)(=O)c2ccc(C)c(C)c2)cc1', 0.2),
  ('S=C(NCC1COc2ccccc2O1)Nc1ccc(Br)cc1 (stereo not drawn)', 91.4),
  ('Cc1cc(C(=O)CSc2nc(N)cc(=O)[nH]2)c(C)n1Cc1ccco1', 64.3),
  ('O=C(COc1ccc(F)cc1Br)NCC1COc2ccccc2O1 (stereo not drawn)', 1.6),
  ('CN1CCN(CCNC(=O)Nc2ccc([N+](=O)[O-])cc2)CC1', 93.8),
  ('Cc1cc(C)c(C(=O)CSc2nc(C)cc(=O)[nH]2)c(C)c1', 0.6),
  ('CC(=O)Nc1ccc(NS(=O)(=O)c2ccc3c(c2)NC(=O)CC(=O)N3)cc1', -1.8),
  ('Cc1cc(C(=O)COC(=O)C2CC2)c(C)n1-c1ccc(F)cc1', 0.2),
  ('CCCN(CC1COc2ccccc2O1)C(=S)Nc1ccc(C)cc1 (stereo not drawn)', 2.3),
  ('CC(C)NS(=O)(=O)c1ccc(NC(=O)C2CCCCC2)cc1', -1.2);

Hello, the source for this data is PubChem BioAssay AID602449, in case you need it.
